Test system: Mycolicibacterium smegmatis
Assay: Antimycobacterial activity against Mycobacterium smegmatis MC2 155 after 72 hrs by broth microdilution method
Type: functional
Settings: str. MC2 155, 72 h
endpoint-name: MIC

Cn1cc(C(=O)O)c(=O)c2ccc3c(nnn3C)c21; 5 µg/mL
CCCCn1cc(C(=O)O)c(=O)c2ccc3c(nnn3Cc3ccccc3)c21; > 128 µg/mL
CCOC(=O)c1cn(CC2CCC2)c2c(ccc3c2nnn3C)c1=O; > 128 µg/mL

Give one value of MIC per listed molecule.
1. CO[C@H]1/C=C/O[C@@]2(C)Oc3c(C)c(O)c4c(O)c(c(/C=N/N5CCN(C)CC5)c(O)c4c3C2=O)NC(=O)/C(C)=C\C=C\[C@H](C)[C@H](O)[C@@H](C)[C@@H](O)[C@@H](C)[C@H](OC(C)=O)[C@@H]1C
2. CCOC(=O)c1cn(C)c2c(ccc3c2nnn3Cc2ccccc2)c1=O
3. CCCCn1cc(C(=O)OCC)c(=O)c2ccc3c(nnn3Cc3ccccc3)c21
4. CC[C@@H](CO)NCCN[C@@H](CC)CO
5. CCOC(=O)c1cn(CC2CC2)c2c(ccc3c2nnn3C)c1=O

**A:**
1. 8 µg/mL
2. > 128 µg/mL
3. > 128 µg/mL
4. 0.5 µg/mL
5. > 128 µg/mL

**Q:** Can you share its MIC? I mean this molecule: C=CCn1cc(C(=O)OCC)c(=O)c2ccc3c(nnn3Cc3ccccc3)c21
**A:** > 128 µg/mL

---

Test system: Pseudomonas aeruginosa
Experiment: Antibacterial activity against Pseudomonas aeruginosa after 18 to 24 hrs by broth microdilution method
Assay type: functional
Exercise: state measured MIC for each of the compounds provided.

Cn1nnc2c3c(ccc21)c(=O)c(C(=O)O)cn3CC1CCC1; > 64 µg/mL
CCn1cc(C(=O)O)c(=O)c2ccc3c(nnn3Cc3ccccc3)c21; > 64 µg/mL
Cn1nnc2c3c(ccc21)c(=O)c(C(=O)O)cn3C(C)(C)C; > 64 µg/mL
Cn1cc(C(=O)O)c(=O)c2ccc3c(nnn3Cc3ccccc3)c21; > 64 µg/mL
CCOC(=O)c1cn(C)c2c(ccc3c2nnn3Cc2ccccc2)c1=O; > 64 µg/mL
CCOC(=O)c1cn(CC)c2c(ccc3c2nnn3Cc2ccccc2)c1=O; > 64 µg/mL
C=CCn1cc(C(=O)OCC)c(=O)c2ccc3c(nnn3Cc3ccccc3)c21; > 64 µg/mL
C=CCn1cc(C(=O)O)c(=O)c2ccc3c(nnn3Cc3ccccc3)c21; > 64 µg/mL
Cn1cc(C(=O)O)c(=O)c2ccc3c(nnn3C)c21; > 64 µg/mL
C=C(C)Cn1cc(C(=O)O)c(=O)c2ccc3c(nnn3C)c21; > 64 µg/mL

Lab note: next compound to report on.
**Q:** Please state recorded MIC (tested on Pseudomonas aeruginosa) of CCOC(=O)c1cn(C(C)(C)C)c2c(ccc3c2nnn3C)c1=O
**A:** > 64 µg/mL

---

System: Mycolicibacterium smegmatis
Assay: Antimycobacterial activity against Mycobacterium smegmatis MC2 155 after 72 hrs by broth microdilution method
Assay type: functional
Details: str. MC2 155, 72 h
endpoint-name: MIC (µg/mL)
Numbers only, in µg/mL.

CCn1cc(C(=O)O)c(=O)c2ccc3c(nnn3Cc3ccccc3)c21; 64
C=C(C)Cn1cc(C(=O)O)c(=O)c2ccc3c(nnn3C)c21; 64
Cn1nnc2c3c(ccc21)c(=O)c(C(=O)O)cn3C(C)(C)C; 32
CCOC(=O)c1cn(C(C)(C)C)c2c(ccc3c2nnn3C)c1=O; 16

**Q:** Can you share its MIC? I mean this compound: O=C(O)c1cn(C2CC2)c2cc(N3CCNCC3)c(F)cc2c1=O
**A:** 0.125
